Values from patent US10071164B2

Biological target: ERRα (Homo sapiens, UniProt P11474)
Sequence (P11474 whole entry): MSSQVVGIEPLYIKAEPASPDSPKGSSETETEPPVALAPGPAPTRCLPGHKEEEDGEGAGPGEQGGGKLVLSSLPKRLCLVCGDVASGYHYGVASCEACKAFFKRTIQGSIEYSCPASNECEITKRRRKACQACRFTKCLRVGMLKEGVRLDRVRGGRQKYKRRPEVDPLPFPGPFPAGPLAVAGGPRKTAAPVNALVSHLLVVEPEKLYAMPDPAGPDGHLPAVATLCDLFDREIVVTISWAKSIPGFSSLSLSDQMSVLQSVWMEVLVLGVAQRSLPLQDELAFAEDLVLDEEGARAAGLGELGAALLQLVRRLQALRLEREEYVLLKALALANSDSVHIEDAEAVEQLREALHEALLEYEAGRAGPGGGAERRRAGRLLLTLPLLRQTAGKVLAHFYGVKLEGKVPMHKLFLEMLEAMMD
Assay: ERRα degradation in ST-486 cells
Assay type: cell-based
Set-up: degration of ERRα in either MCF-7 cells or ST-486 cells; endogenous in cells; host or cells: ST-486
Conditions: ST486, column C, read-out: ERRα Degradation Dmax (Estimated) ST-486 cells
property: Dmax (%)

COc1cc(/C=C2\SC(=O)N(CCOCCOCCOCC(=O)N[C@H](C(=O)N3C[C@H](O)C[C@H]3C(=O)NCc3ccc(-c4scnc4C)cc3)C(C)(C)C)C2=O)ccc1Oc1ccccc1C(F)(F)F = 98
COc1cc(/C=C2\SC(=O)N(CCOCCOCCCCOCCOCCOCC(=O)N[C@H](C(=O)N3C[C@H](O)C[C@H]3C(=O)NCc3ccc(-c4scnc4C)cc3)C(C)(C)C)C2=O)ccc1Oc1ccc(C#N)cc1C(F)(F)F = 80
COc1cc(/C=C2\SC(=O)N(CCCCOCCOCCOCC(=O)N[C@H](C(=O)N3C[C@H](O)C[C@H]3C(=O)NCc3ccc(-c4scnc4C)cc3)C(C)(C)C)C2=O)ccc1Oc1ccc(C#N)cc1C(F)(F)F = 90
COc1cc(/C=C2\SC(=O)N(Cc3ccccc3CC(=O)N[C@H](C(=O)N3C[C@H](O)C[C@H]3C(=O)NCc3ccc(-c4scnc4C)cc3)C(C)(C)C)C2=O)ccc1Oc1ccc(C#N)cc1C(F)(F)F = 98
